Task for the reader: assign each of the following compounds its reported melting point.

# compound OCC1OC(n2c(Br)nc3c(NCc4ccccc4)ncnc32)C(O)C1O (stereo not drawn) ; its melting point = 96 to 98 °C

The compound listed as Cc1c(C)c2c(c(C)c1OCC=Cc1ccccc1)C(c1ccc(C(C)C)cc1)C(C)(C)O2 (stereo not drawn) has a reported melting point of 106 to 107 °C

Lab note: measured melting point of COCCOc1cc(OC)c(C(CC(=O)Nc2cc(C(N)=O)ccc2C(C)(C)C)CC(C)C)cc1Cl (stereo not drawn) was 178 to 179 °C

---

Give measured melting point for each item. Keep answers brief.

Reported melting point for COc1nc(NC(=O)NS(=O)(=O)c2ccccc2C(=O)OCCCl)nc(OC)n1 was 171 to 174 °C

In plain terms, NS(=O)(=O)c1ccc(-c2noc(-c3cnc4ccc(-c5ccc(C(F)(F)F)cc5)cn34)n2)cc1 has a documented melting point of 288 °C

get_value(item= O=C(O)C1(c2ccc(I)cc2)CC1 , readout=melting point) returns 150 to 152 °C

Summary for this compound, O=c1ncc(Cl)cn1COc1ccccc1 : melting point is 146 °C

Measured melting point of O=C(CC1CC(O)CO1)NC1CCC(CCN2CCN(c3nccc4c3CCO4)CC2)CC1 (stereo not given) : 155 °C

// sample CC(C)(C)c1nc2cc(N3CCSCC3)c(N=C=S)cc2s1 , its melting point was 155 to 159 °C

melting point measured on COC1=C(OC)C(=O)C2=C(CCC(CCOc3ccc(OC)cc3)CC2)C1=O = 76 to 77 °C

Kindly note the recorded melting point for Cc1cc2c3c(c1)C(c1ccccc1)C(=O)N3CC(=O)N2 (stereo not given) , which is 195 to 200 °C

Consider O=Cc1cc(O)cc2cc(-c3ccc(O)cc3)oc12 . Its measured melting point is 261 to 263 °C

CCC1Oc2ccc(C(C)C(=O)O)cc2C(=O)C1C (stereo not given) has a reported melting point of 114 to 115 °C

---

EXPERIMENTAL READOUT: melting point

# molecule CN(C)C(=O)CCc1ccc2c(c1)nc(N)c1nc(CO)n(CC(C)(C)O)c12 ; its melting point = 228 to 230 °C

So for COC(=O)c1c(C(F)(F)C(F)(F)F)[nH]c(C(F)(F)C(F)(F)F)c1C(=O)OC , the logged melting point turned out to be 68 to 71 °C

For CC(c1ccccc1)n1cncc1C(=O)O (single isomer, unassigned; (-)) the molecule record lists melting point as 155 °C

For record C=C1CCC2C3CCC4=CC(=O)CCC4C3CCC12C (centres undefined) the listed melting point is 83 to 89 °C

// COc1ccccc1COC(=O)c1ncn2c1[C@@H]1CCCN1C(=O)c1c(Cl)cccc1-2 : melting point value = 178 to 179 °C

// CC(C)(C)OC(=O)NCC1CCN(Cc2ccccc2)C1 (centres undefined) : melting point value = 51 to 54 °C

Form field melting point, entry N#Cc1ccccc1Nc1cc2c(cc1Nc1ccccc1C#N)C(=O)NC2=O : 279 to 280 °C

Lab note: N#CCc1cc(Cl)nc(N)n1 gave melting point of 110 to 115 °C

The molecule identified as Cn1nnc(-c2ccc(C=O)cc2)n1 registered its melting point at 137 to 139 °C

For reference, reported melting point for CN(Cc1ccc(F)cc1)C1CCN(c2ccc(Cl)cc2)CC1 stands at 72 to 73 °C

Item: Cc1nn(-c2ccccn2)c2ncc(C(=O)N(C)c3ccccc3)c(OCc3ccccc3)c12 | melting point: 92 to 93 °C

# melting point of COC(=O)C1=C(C)NC(C)=C(C(=O)NCCCN2CCN(c3ccccc3OC)CC2)C1c1cccc([N+](=O)[O-])c1 (centres undefined) = 70 to 80 °C

Given item O=C(c1cccc2cc[nH]c12)N1CCN(c2ccccc2)CC1 , the value recorded as its melting point is 217 to 219 °C

Summary for this molecule, CC(=O)n1ccc(=O)c(O)c1C : melting point is 152 to 160 °C

Documented melting point of Nc1nccc(OCc2ccccc2)c1N : 135 to 136 °C

For this molecule ( CCCCCCCCCCOc1c(Br)sc(-c2nc3ccccc3s2)c1OCCCCCCCCCC ), measured melting point is 42 to 43 °C

The molecule CCOC(=O)N1CCOC(CN2C(=O)c3ccccc3C2=O)C1 (centres undefined) showed melting point equal to 113 to 115 °C

Field melting point (entry COCCCc1nc(C(F)F)ccc1C(=O)O ) reads 86 to 87 °C

Memo: COc1ccc(CCc2nc(C(F)(F)F)c[nH]2)cc1 , reported melting point: 146 to 148 °C

Reported melting point for N#CC(C#N)=CNc1ccc(C2=NNC(=O)CC2)cc1 was 290 to 295 °C

Briefly, melting point measured for COc1cc(COc2nn(-c3ccccc3)cc2C(=O)O)ccc1OCc1nc(-c2ccccc2)oc1C : 209 to 210 °C

Value of measured melting point for the entry CCOC(=O)c1csc2cc(OC)ccc12 : 68 to 69 °C

# molecule Cc1nc(OCCCCn2cncn2)c([N+](=O)[O-])c(N2CCc3ccccc3CC2)n1 ; its melting point = 88 to 91 °C

get_value(item= O=C(O)CNC(=O)C(c1ccccc1)c1ccccc1 , readout=melting point) returns 113 to 115 °C

---

EXPERIMENTAL READOUT: melting point

// melting point lookup, compound = CN(C(=S)Nc1ccccc1)C1CCN(CCc2c[nH]c3ccccc23)CC1 , result: 194 °C

Looking up CN(C)C(=O)N(C)Cc1ccc(CCn2cnc3cc(-c4ccc(Cl)cc4)sc3c2=O)cc1 , I see its melting point listed as 160 to 165 °C

Measured melting point, COc1ccc(-c2nc(C)c(-c3cccnc3)n2O)cc1OC : 131 to 135 °C

get_value(item= CC1(C)Cc2c(c(O)cc3c2C(c2cccc(-c4ccc(NC(=O)OCc5ccccc5)cc4)c2)=NCC3(C)C)O1 , readout=melting point) returns 161 to 165 °C

Kindly note the recorded melting point for CCn1c(=O)n(O)c(=O)c2cc(F)c(F)cc21 , which is 172 to 174 °C

Sample CC(COC1CCCCO1)C1CCC2C3CC=C4CC(O)CC(O)C4(C)C3CCC12C (stereo unspecified) ; melting point observed: 138 to 141 °C

Notebook: OCc1cccc(Nc2nc(Oc3ccccc3)nc(Oc3ccccc3Cl)n2)c1 , melting point read as 52 to 54 °C

Per the records, this compound ( CCCCc1oc2ccccc2c1Cc1cc(I)c(OCCN(CC)CC)c(I)c1 ) has melting point equal to 80 to 81 °C

Please fill in: melting point reported for Fc1ccc(-c2ncn(C3CCCCO3)c2-c2ccc(F)cc2)cc1 (stereo unspecified) = 149 to 152 °C

The reported melting point of the compound CN1Cc2c(C(=O)OCC3CC3)ncn2-c2ccc(F)cc2C1=O was 156 to 157 °C

Summary for this compound, O=C1/C(=C/c2cccs2)CNc2cc(OCCn3ccnc3)ccc21 : melting point is 211 to 213 °C

---

Please provide measured melting point for the entries that follow.

# melting point (compound: CCCCc1ccc(NCc2ccc(N(C)C)cc2)cc1 ) is 60 to 61 °C

The measured melting point associated with COc1ccc(OC)c2c1CCC(OC(C)=O)(C(C)=O)C2 (stereo not drawn) reads 120 to 122 °C

// sample ClC1=NC(Cl)(C(Cl)(Cl)C(Cl)(Cl)Cl)N=C1Cl , its melting point was 74 to 75 °C

---

Please respond with reported melting point for every item in the list.

Please fill in: melting point reported for COC(=O)/C=C/c1ccc(C=O)s1 = 61 to 62.5 °C

Per the records, this compound ( COC(=O)c1cc(F)c(Cl)nc1Nc1ccc(F)cc1F ) has melting point equal to 137 to 139 °C

For record CS(=O)(=O)c1ccc(-n2nc(C(F)(F)F)nc2-c2ccc(Br)cc2)nc1 the listed melting point is 143 to 145 °C

Just so you know, measured melting point for CC(C)(C)C(=O)c1c[nH]c2ncc(-n3ccc4ccccc43)nc12 came out at 205 to 207 °C

Record summary for CCCCOc1nc(N)c2[nH]c(=O)n(CCCNCc3cccc(C(=O)OC)c3)c2n1 : reported melting point = 214 to 218 °C

Kindly note the recorded melting point for CCOCCC(=O)NN , which is 34 °C

Value of melting point reported for the compound CNC(=O)C(C)n1c(-c2ccc(Cl)cc2)nc2cccnc21 (stereo not given) is 217 to 218 °C

Sure, the documented melting point for COc1cccc(S(=O)(=O)c2ccc(C)nc2Nc2c(C)cc(C)cc2C)c1 is 87 to 88 °C

Reported melting point of CCCN(Cc1ccc(-c2ccccc2-c2nnn[nH]2)cc1)C1(C(=O)O)C=NSN1 (stereo not given) : 97 to 98 °C

Value of melting point reported for the compound CCOC(=O)c1ccccc1NC(=O)Nc1ccccc1I is 162 to 164 °C

Item: CC(C(=O)Oc1cc(=O)n(-c2cccc(OC(F)(F)F)c2)c2ncccc12)c1ccccc1 (stereo not given) | melting point: 115 to 117 °C

Entry C=Cc1c(NC(=O)OC(C)(C)C)cccc1[N+](=O)[O-] , melting point reported as 120 to 121 °C

melting point measured on Cc1nc(NC(=O)c2ccccc2)n(C)c(=O)c1CCN1CCC(=C(c2ccc(F)cc2)c2ccc(F)cc2)CC1 = 240 °C

Looking up CC1CC(C)N(CCCNC(=O)CN2CCCC2=O)C(C)(C)C1 (stereo not given) , I see its melting point listed as 85 to 87 °C

# melting point of CCCc1cc(O)nc(C(Cl)(Cl)Cl)n1 = 107 to 110 °C

get_value(item= NN=C(c1ccccc1)c1cc(Cl)ccc1N , readout=melting point) returns 133 to 134 °C

Consider CC(CNC(=O)OC(C)(C)C)C(=O)NC(CC(=O)OCc1ccccc1)C(N)=O (mixture of isomers) . Its measured melting point is 135 to 136 °C

So, CCOC(=O)c1cn(C(C)CCl)c2cc(Cl)c(F)cc2c1=O (stereo not given) ? Its melting point was 151 to 153 °C

// recorded melting point for COC(=O)c1ccc(CN(Cc2cc(Br)ccc2OCc2ccccc2)c2ccc(C(=O)OC(C)(C)C)cc2)cc1 : 154 to 155 °C

Sure, the documented melting point for CCC(=O)OC1CCC2C3CCC4=CC(=O)CCC4(C=O)C3CCC12C (stereo not given) is 119 to 121 °C

// sample CC(=O)Cc1cccc2c1C(=O)c1ccccc1C2=O , its melting point was 198 to 200 °C

melting point for Cc1sc(C)c(Cc2nc3c(F)c(F)cc(F)c3s2)c1CC#N is 145 to 146 °C

Recorded result, COC(=O)CCC(NC(=O)CCCC#Cc1cnc2nc(NC(=O)C(C)(C)C)nc(O)c2c1)C(=O)OC (stereo not given) , melting point: 159 to 160 °C

OCc1cnoc1-c1ccc(C(F)(F)F)cc1 has a reported melting point of 106 to 107 °C

Measured melting point of COC(=O)c1ccc(CC(=O)Nc2cccc(/C=C/c3nc(C4CCC4)cs3)c2)cc1 : 163 to 164 °C
